Test system: Micrococcus luteus
Assay Procedure: Antimicrobial activity against Micrococcus luteus incubated for 12 to 16 hrs followed by plating in nutrient agar by tube dilution method
Type: functional
Active and inactive are the calls of the source. The rule behind the calls is not given here.
Property: MBC

smi=Clc1ccc(-c2cn(Cc3cn(-c4ccccc4)nc3-c3ccccc3)nn2)cc1 property=MBC reported_value=inactive
smi=COc1ccc(-c2nn(-c3ccccc3)cc2Cn2cc(CO)nn2)cc1 property=MBC reported_value="125 µg/mL"
smi=COC(=O)c1nnn(Cc2cn(-c3ccccc3)nc2-c2ccccc2)c1C(=O)OC property=MBC reported_value=inactive
smi=Nc1ccc(-c2cn(Cc3cn(-c4ccccc4)nc3-c3ccccc3)nn2)cc1 property=MBC reported_value=inactive
smi=Cc1ccc(-c2nn(-c3ccccc3)cc2CN=[N+]=[N-])cc1 property=MBC reported_value=inactive
